System: blood coagulation
Assay: PT and aPTT assay in cynomolgus monkeys (Example 45)
Assay type: in vivo
Conditions: day 64; escalating dose regimen; platelet poor plasma
observation-type: PT ratio (INR)
Enter the number alone.

substance	measurement
ISIS 416838: MOE gapmer, nucleobases 1018 to 1042 of SEQ ID NO: 1 (Table 6) (antisense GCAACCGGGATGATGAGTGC; MOE gapmer, wing and gap sizes not given here)	1.04

Data request: Could you please provide reported PT ratio (INR) for ISIS 416858: MOE gapmer, nucleobases 1275 to 1318 of SEQ ID NO: 1 (Table 8) (antisense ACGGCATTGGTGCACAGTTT; MOE gapmer, wing and gap sizes not given here) ? Thanks!
Data returned: 1.09
